Data credit: patent US10071954B2

- Tested on: CD34+ normal human blood stem cells vs MA9.3RAS AML cells
- PROTOCOL_NOTES: Selectivity factor: ratio of IC50 of normal cells over IC50 of AML cells
- Format: cell-based
- EXPERIMENTAL_SETUP: CD34+ normal human blood stem cells / MA9.3RAS AML cells
READOUT_KIND: selectivity factor (ratio of IC50 of normal cells over IC50 of AML cells)

MOLECULE | VALUE_OBSERVED
O=C(CSc1ccccc1)Nc1cc(O)ccc1O | limited selectivity
COc1cc(/C=C/C(=O)N2CCC=CC2=O)cc(OC)c1OC [PLG, piperlongumine, reference compound] | 3.7±1
O=C(COc1ccccc1)Nc1cc(O)ccc1O | limited selectivity
